- SYSTEM_NAME: human insulin-like growth factor-II (IGF-II) (human, UniProt P01344 25-91)
- ASSAY_DETAILS: cell-based or functional assay
READOUT_LABEL: EC50 (nM), n = 2, IGF-II pTYR, BxPC3 cells
# output: bare number, implied unit nM

Query: EC50 (nM), n = 2, IGF-II pTYR, BxPC3 cells; subject: mAb 7.251.3 (antibody, V domains shown, Fully human XenoMouse hybridoma mAb, lambda light chain (V1-13/JL2); also called ATCC PTA-7422) VH: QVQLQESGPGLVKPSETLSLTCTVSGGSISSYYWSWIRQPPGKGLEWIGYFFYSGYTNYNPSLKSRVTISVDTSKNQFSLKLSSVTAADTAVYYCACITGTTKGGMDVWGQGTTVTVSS VL: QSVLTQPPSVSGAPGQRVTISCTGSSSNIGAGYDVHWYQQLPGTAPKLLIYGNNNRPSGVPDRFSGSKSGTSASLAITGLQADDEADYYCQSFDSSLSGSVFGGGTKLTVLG
2.6
